- ASSAY_INFO: Human HepG2 cell viability assay in 384 well format
- Format: toxicity, cell-based
- Design: dose 125 nL, time 70.5 hour; concentration not given beside the values
- CONDITION_CONTEXT: HepG2 cells, read-out: Inhibition
MEASURED_QUANTITY: cytotoxicity at 70.5 h (%)
Express the result in % but write the number alone.

These recorded examples may help you get a feel for the data.
O=C(c1ccc2[nH]ccc2c1)N1Cc2nc(CN3CCCCC3)oc2C1; -3.84
CC(C)CC(NC(=O)Nc1ccc(F)c(Cl)c1)C(=O)O (centres undefined); -8.78
Cc1ccc(C(=O)N2CCCC(CNS(=O)(=O)C(C)C)C2)cc1 (centres undefined); -3.09
CCN(CC)S(=O)(=O)c1ccc(CNC(=O)N2CCCCCC2)cc1; -7.35
Cc1nnc(C2Cc3ccccc3CN2Cc2ncc(C(C)(C)C)o2)o1 (centres undefined); 34.5

What cytotoxicity at 70.5 h value was documented for this molecule, COc1cccc([C@@H]2CN(C3CSCCSC3)C[C@H]2C(=O)O)c1 ?
-1.5

// query: O=C(Nc1cccc(C(F)F)c1)N[C@@H]1C=C[C@H](CO)C1
2.83

// query: COCc1cccc(NC(C)C(=O)N(C)Cc2ccccc2)c1 (centres undefined)
10.7

// query: CC(C)CN1CCC2(CC1)CN(C(=O)C(C)C)C2
-9.29

// query: CN(CC1CCOCC1)C1CCCN(c2ccccn2)C1 (centres undefined)
-7.08
